# Tested on: HEK-293T
# Test Summary: Incucyte cell viability with HEK293T; further: unitless GR value; below 1 slowed growth and below 0 cell loss
# Format: toxicity, cell-based
# Stated Conditions: human, 18 h, 10 µM, compound concentration 10 uM, replicate number 2, timepoint 18 hours
Growth Rate below 0.6 gives No; Growth Rate at or above it gives Yes.

1. CN(CCN1CCC(OC(=O)Nc2ccccc2-c2ccccc2)CC1)C(=O)c1ccc(CN2CCC(C(N)=O)CC2)cc1; Yes
2. Nc1cnc(N2CCc3cc(S(=O)(=O)Nc4c(F)cc(Cl)cc4F)cc(N4CCCC4=O)c32)nc1 [TP-020n]; Yes
3. Cc1cccc(S(=O)(=O)N(C)[C@H](C)CCN2CCC(C)CC2)c1.Cl; Yes
4. O=C(Nc1cc(C(F)(F)F)ccc1N1CCN(Cc2ccccn2)CC1)c1ccc(-c2ccncc2)o1; No
5. CCC(=O)OCC(=O)[C@@]1(OC(=O)CC)[C@@H](C)C[C@H]2[C@@H]3CCC4=CC(=O)C=C[C@]4(C)[C@@]3(Cl)[C@@H](O)C[C@@]21C [BECLOMETHASONE DIPROPIONATE]; Yes
6. CCCCC/C=C\C/C=C\C/C=C\C/C=C\CCCC(=O)OC(CO)CO; Yes
7. O=c1c2cccn2c2ccccc2n1CCCN1CCC(c2ccc(Cl)cc2)CC1; No
8. O=C(CCCc1ccccc1)Nc1nc2ccccc2c(=O)s1; Yes

Lab note: next compound to report on.
Hi, just wondering whether `O=S(=O)(c1ccccc1)N(CC(F)(F)F)c1ccc(C(O)(C(F)(F)F)C(F)(F)F)cc1` shows Growth Rate of 0.6 or higher. No

====

# System: U2OS
# Test Summary: Incucyte cell viability with U2OS; further: unitless GR value; below 1 slowed growth and below 0 cell loss
# Format: toxicity, cell-based
# Stated Conditions: human, 18 h, 10 µM, compound concentration 10 uM, replicate number 1, timepoint 18 hours
Property: Growth Rate
Lab note: jot the number down without any unit.

1. CCC(=O)OCC(=O)[C@@]1(OC(=O)CC)[C@@H](C)C[C@H]2[C@@H]3CCC4=CC(=O)C=C[C@]4(C)[C@@]3(Cl)[C@@H](O)C[C@@]21C [BECLOMETHASONE DIPROPIONATE]; 0.8
2. N=C(N)NCCC[C@H](NC(=O)COCC(c1ccccc1)c1ccccc1)C(=O)O.O=C(O)C(F)(F)F; 0.7
3. CN(C)CCn1cc(S(=O)(=O)c2cccc(F)c2)c2cccnc21.Cl.Cl; 0.8
4. CCCCCCCCCCCCC/C=C/[C@@H](O)[C@@H](N)COP(=O)(O)O; 0.99
5. COc1ccccc1N1CCN(CCCCNC(=O)c2ccc3ccccc3c2)CC1.Cl; 0.77

Reported Growth Rate ( CCCN(CCC)CCc1cccc2c1CC(=O)N2.Cl [ROPINIROLE HYDROCHLORIDE] ) = 0.76

Reported Growth Rate ( `S=C(NCCCc1c[nH]cn1)NCCCN(Cc1ccc(Cl)c(Cl)c1)c1ccc(Br)cn1` ) = 0.88

Reported Growth Rate ( `Cl.FC(F)(F)c1ccc(N2CCNCC2)nc1Cl` ) = 0.93

Reported Growth Rate ( C[C@]12N[C@H](Cc3ccccc31)c1ccccc12 [DIZOCILPINE] ) = 0.97

Reported Growth Rate ( `C=CCNc1ncnc2ccc(Br)cc12` ) = 0.82

Reported Growth Rate ( `O=C(O)c1cccc(/C=C2/C[C@@H]3[C@@H](/C=C/[C@H](O)C4CCCCC4)[C@H](O)C[C@@H]3O2)c1` ) = 0.9

Reported Growth Rate ( `CSc1cc2c(cc1C(F)(F)F)N(C(=O)Nc1cccnc1)CC2` ) = 0.84

Reported Growth Rate ( `O=c1ccn([C@@H]2O[C@H](COP(=O)([O-])OP(=O)([O-])OP(=O)([O-])O)[C@@H](O)[C@H]2O)c(=O)[nH]1.[Na+].[Na+].[Na+]` ) = 0.83

Reported Growth Rate ( CO/C1=C/C(C)=C\[C@@H](C)[C@@H](O)[C@@H](C)C/C(C)=C\C=C/[C@H](OC)C([C@@H](C)[C@@H](O)[C@H](C)[C@@]2(O)C[C@@H](O)[C@H](C)[C@@H](C(C)C)O2)OC1=O (some centres undefined) ) = 0.23

Reported Growth Rate ( O=C(O)CCC/C=C\CC1C(O)CC(O)C1/C=C/C(O)COc1cccc(Cl)c1 (centres undefined) [CLOPROSTENOL] ) = 0.7

Reported Growth Rate ( `CCNC(=O)[C@H]1O[C@@H](n2cnc3c(N)nc(NCCc4ccc(CCC(=O)O)cc4)nc32)[C@H](O)[C@@H]1O.Cl` ) = 0.96

Reported Growth Rate ( COc1cc2c(Oc3ccc(NC(=O)C4(C(=O)Nc5ccc(F)cc5)CC4)cc3F)ccnc2cc1OCCCN1CCOCC1 [FORETINIB] ) = -0.03

Data origin, for the record: ChEMBL document CHEMBL5058564
